Target: T1, AFP158/HLA-A*02:01 complex (human)
T1 construct: flowed as analyte in SPR
Assay: SPR, crude scFv captured, pMHC analyte;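 further: pMHC analyte injected at three concentrations, association phase of one hundred seconds, then running buffer for dissociation, rates fitted from both curves, KD derived from the rates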
We label by threshold. Values of koff strictly beneath 0.002 s⁻¹ are criterion met. Values of 0.002 s⁻¹ and up are criterion not met.

Recorded results for 5 binders are shown here.
{"BINDER": "AS170036 VL1VH1-98Q108A (scFv, also called 37-AS170036 VL1VH1-98Q108A) scFv: QSALTQPRSVSGSPGQSVTISCAGTSSDVGSENYVSWYQQHPGKAPKLMIYQVNKRASGVPDRFSGSKSGNTASLTISGLQAEDEADYYCASYRSSDQNIVFGGGTKLTVLGGGGSGGGGSGGGGSEVQLVESGGGLVQPGGSLRLSCAASGFTFSSYAMSWVRQAPGKGLEWVSTINSGTGSPYYADSVKGRFTISRDNSKNTLYLQMNSLRAEDTAVYYCAKNFFDGSWFLAPPAMDYWGQGTLVTVSSHHHHHH", "CLASS": "criterion not met"}
{"BINDER": "AS170036 VL1VH1-56Y108S (scFv, also called 18-AS170036 VL1VH1-56Y108S) scFv: QSALTQPRSVSGSPGQSVTISCAGTSSDVGSENYVSWYQQHPGKAPKLMIYQVNKRASGVPDRFSGSKSGNTASLTISGLQAEDEADYYCASYRSSDHNIVFGGGTKLTVLGGGGSGGGGSGGGGSEVQLVESGGGLVQPGGSLRLSCAASGFTFSSYAMSWVRQAPGKGLEWVSTINSGTYSPYYADSVKGRFTISRDNSKNTLYLQMNSLRAEDTAVYYCAKNFFDGSWFLSPPAMDYWGQGTLVTVSSHHHHHH", "CLASS": "criterion met"}
{"BINDER": "AS170036 VL1VH1-56Y108D (scFv, also called 17-AS170036 VL1VH1-56Y108D) scFv: QSALTQPRSVSGSPGQSVTISCAGTSSDVGSENYVSWYQQHPGKAPKLMIYQVNKRASGVPDRFSGSKSGNTASLTISGLQAEDEADYYCASYRSSDHNIVFGGGTKLTVLGGGGSGGGGSGGGGSEVQLVESGGGLVQPGGSLRLSCAASGFTFSSYAMSWVRQAPGKGLEWVSTINSGTYSPYYADSVKGRFTISRDNSKNTLYLQMNSLRAEDTAVYYCAKNFFDGSWFLDPPAMDYWGQGTLVTVSSHHHHHH", "CLASS": "criterion met"}
{"BINDER": "AS170036 VL1VH1-98F108D (scFv, also called 32-AS170036 VL1VH1-98F108D) scFv: QSALTQPRSVSGSPGQSVTISCAGTSSDVGSENYVSWYQQHPGKAPKLMIYQVNKRASGVPDRFSGSKSGNTASLTISGLQAEDEADYYCASYRSSDFNIVFGGGTKLTVLGGGGSGGGGSGGGGSEVQLVESGGGLVQPGGSLRLSCAASGFTFSSYAMSWVRQAPGKGLEWVSTINSGTGSPYYADSVKGRFTISRDNSKNTLYLQMNSLRAEDTAVYYCAKNFFDGSWFLDPPAMDYWGQGTLVTVSSHHHHHH", "CLASS": "criterion not met"}
{"BINDER": "AS170036 VL1VH1-98I108S (scFv, also called 36-AS170036 VL1VH1-98I108S) scFv: QSALTQPRSVSGSPGQSVTISCAGTSSDVGSENYVSWYQQHPGKAPKLMIYQVNKRASGVPDRFSGSKSGNTASLTISGLQAEDEADYYCASYRSSDINIVFGGGTKLTVLGGGGSGGGGSGGGGSEVQLVESGGGLVQPGGSLRLSCAASGFTFSSYAMSWVRQAPGKGLEWVSTINSGTGSPYYADSVKGRFTISRDNSKNTLYLQMNSLRAEDTAVYYCAKNFFDGSWFLSPPAMDYWGQGTLVTVSSHHHHHH", "CLASS": "criterion not met"}

Input: State whether 0.002 s⁻¹ exceeds koff recorded for AS170036 VL1VH1-57M98F (scFv, also called 13-AS170036 VL1VH1-57M98F) scFv: QSALTQPRSVSGSPGQSVTISCAGTSSDVGSENYVSWYQQHPGKAPKLMIYQVNKRASGVPDRFSGSKSGNTASLTISGLQAEDEADYYCASYRSSDFNIVFGGGTKLTVLGGGGSGGGGSGGGGSEVQLVESGGGLVQPGGSLRLSCAASGFTFSSYAMSWVRQAPGKGLEWVSTINSGTGMPYYADSVKGRFTISRDNSKNTLYLQMNSLRAEDTAVYYCAKNFFDGSWFLGPPAMDYWGQGTLVTVSSHHHHHH .
Output: criterion not met

Input: State whether 0.002 s⁻¹ exceeds koff recorded for AS170036 VL1VH1-56N98Q (scFv, also called 06-AS170036 VL1VH1-56N98Q) scFv: QSALTQPRSVSGSPGQSVTISCAGTSSDVGSENYVSWYQQHPGKAPKLMIYQVNKRASGVPDRFSGSKSGNTASLTISGLQAEDEADYYCASYRSSDQNIVFGGGTKLTVLGGGGSGGGGSGGGGSEVQLVESGGGLVQPGGSLRLSCAASGFTFSSYAMSWVRQAPGKGLEWVSTINSGTNSPYYADSVKGRFTISRDNSKNTLYLQMNSLRAEDTAVYYCAKNFFDGSWFLGPPAMDYWGQGTLVTVSSHHHHHH .
Output: criterion not met

Input: State whether 0.002 s⁻¹ exceeds koff recorded for AS170036 VL1VH1-56Y98Q (scFv, also called 03-AS170036 VL1VH1-56Y98Q) scFv: QSALTQPRSVSGSPGQSVTISCAGTSSDVGSENYVSWYQQHPGKAPKLMIYQVNKRASGVPDRFSGSKSGNTASLTISGLQAEDEADYYCASYRSSDQNIVFGGGTKLTVLGGGGSGGGGSGGGGSEVQLVESGGGLVQPGGSLRLSCAASGFTFSSYAMSWVRQAPGKGLEWVSTINSGTYSPYYADSVKGRFTISRDNSKNTLYLQMNSLRAEDTAVYYCAKNFFDGSWFLGPPAMDYWGQGTLVTVSSHHHHHH .
Output: criterion met
